- System: ACHN
- TEST: NCI tumour cell line growth inhibition, 48 h
The source made the active and inactive calls. Cut-off read from the data, not from the text of the source: active = GI50 up to about 1.1 µM and inactive = higher.
Answer with one of the outcomes Yes for active, No for inactive

// query What classification did COCn1c(C)c(C)c2c(=O)oc(C)nc21 end up with in this test?
// result No

// query What classification did COC(=O)CCC(=O)NC1C2CC3CC(C2)CC1C3 (stereo not given) end up with in this test?
// result No

// query What classification did COC(=O)c1nc2c3c(cccc3c1C(=O)OC)Nc1ccccc1-2 end up with in this test?
// result No

// query What classification did COc1cc([C@@H]2c3cc4c(cc3[C@@H](NC(=O)c3ccc(C(C)=O)cc3)C3COC(=O)[C@@H]32)OCO4)cc(OC)c1O (stereo not given in full) end up with in this test?
// result Yes

// query What classification did CC1(C)CC2=C(Sc3ccccc3N2)C(=O)C1C(=O)C(=O)Nc1cccc([N+](=O)[O-])c1 (stereo not given) end up with in this test?
// result No

---

Could you please report measured GI50 for the items listed next?
- System: A498
- TEST: NCI tumour cell line growth inhibition, 48 h
The source made the active and inactive calls. Rule as the data show it: active = GI50 up to about 1.1 µM and inactive = higher.

For reference, reported GI50 for N=C(N)SCc1ccc(Cl)cc1Cl.O=[N+]([O-])c1c(O)c(Cl)cc(Cl)c1Cl stands at 13.3 µM (inactive)

For reference, reported GI50 for COc1ccc(OC)c2c1C(=O)C(O)=C(Cl)C2=O stands at > 100 µM (inactive)

For reference, reported GI50 for C/C(=C/CO[Si](C)(C)C(C)(C)C)C(=O)N(C)c1ccccc1I stands at 17.3 µM (inactive)

For reference, reported GI50 for CC(C)NC(=O)OCc1c(COC(=O)NC(C)C)n(C)c2c1ccc1sccc12 stands at 16.3 µM (inactive)

For reference, reported GI50 for O=C(OCC1CCCN2CCCCC12)c1cccnc1 (stereo unspecified) stands at > 100 µM (inactive)

For reference, reported GI50 for CC(=O)N/C=C/c1cc(O)ccc1O stands at 51.3 µM (inactive)

For reference, reported GI50 for CC1(C)CC(=O)C(/C(=N/NC(=S)NN)C(=O)Nc2nc3ccc([N+](=O)[O-])cc3s2)C(=O)C1 stands at > 100 µM (inactive)

For reference, reported GI50 for NC12CC3CC(C1)CC(Cl)(C3)C2 stands at > 100 µM (inactive)

For reference, reported GI50 for CCOC(=O)C1=CN(C(=O)c2ccccc2)CCC1Cc1ccccc1 (stereo unspecified) stands at 7.87 µM (inactive)

For reference, reported GI50 for C[C@H]1CC[P+](C)(c2ccccc2)C1 (stereo partly specified) stands at > 100 µM (inactive)

For reference, reported GI50 for c1ccc(C2OC3(CCC[C@H]4C[C@H]43)O[C@H]2c2ccccc2)cc1 (stereo partly specified) stands at > 100 µM (inactive)

---

- Test system: SW-620
- TEST: NCI tumour cell line growth inhibition, 48 h
The source made the active and inactive calls. No stated cut-off is given here; in the data, active = GI50 up to about 1.1 µM and inactive = higher.
Could you please report measured GI50 for the items listed next?

For reference, reported GI50 for Nc1nc(N)c(C2=CCNCC2)c(=O)[nH]1 stands at > 100 µM (inactive)

For reference, reported GI50 for Clc1ccccc1/C=C/c1ccnc2ccccc12 stands at 18.4 µM (inactive)

For reference, reported GI50 for Cc1ccc2c(c1)[n+]([O-])c(N)n[n+]2[O-] stands at > 100 µM (inactive)

For reference, reported GI50 for c1cc2c(c(NC3=NCCO3)c1)CCC2 stands at > 100 µM (inactive)

For reference, reported GI50 for CC1=C(C(=O)N(C(C)C)C(C)C)CC(C(=O)N(C(C)C)C(C)C)=C(C)N1 stands at > 100 µM (inactive)

For reference, reported GI50 for CC(=O)OC12c3ccccc3C1CCCC21OCCCO1 (centres undefined) stands at > 100 µM (inactive)

For reference, reported GI50 for COC(=O)c1ccc2c(c1)CC1(C2)Cc2ccc3c(c2C1)CCC3 (centres undefined) stands at 14.4 µM (inactive)

For reference, reported GI50 for COc1cccc(/C=N/NC(=O)CN(C)C)c1O stands at > 100 µM (inactive)

For reference, reported GI50 for Cc1noc(/N=C2\C=C(Nc3onc(C)c3C)C(=O)c3ccccc32)c1C stands at > 100 µM (inactive)

For reference, reported GI50 for CCc1cc2c(c3c1CCCC3)CC1(Cc3ccc(C(=O)OC)cc3C1)C2 (centres undefined) stands at > 100 µM (inactive)

For reference, reported GI50 for CCN1CC2=C(NC(=S)NC2c2cc(OC)c(OC)c(OC)c2)/C(=C/c2cc(OC)c(OC)c(OC)c2)C1 (centres undefined) stands at 86.3 µM (inactive)

For reference, reported GI50 for C/C(Cl)=N\OC(=O)Nc1ccc([N+](=O)[O-])cc1 stands at 2 µM (inactive)

For reference, reported GI50 for Oc1nc2c(c(-c3cccc(Cl)c3)n1)COC/C2=C\c1cccc(Cl)c1 stands at > 100 µM (inactive)

For reference, reported GI50 for CC1=C2O[B-](c3ccccc3)(c3ccccc3)[O+]=C2C=CN1 stands at 44.9 µM (inactive)

For reference, reported GI50 for CCCCCCCCCCCCCCCCCCNc1ccn(C2OC(COP(=O)(O)OCCCCCCCCCCCCCCCC)C(O)C2O)c(=O)n1 (centres undefined) stands at > 100 µM (inactive)

For reference, reported GI50 for O=C1OC(=O)C2CCCC3CCCC1C32 (centres undefined) stands at > 100 µM (inactive)

For reference, reported GI50 for O=C(Cc1nc2ccccc2o1)C(=O)Nc1cccc(Cl)c1 stands at > 100 µM (inactive)

For reference, reported GI50 for O=C(O)c1ccc(NNC(=O)c2cccc3c(=O)c4ccccc4[nH]c23)cc1 stands at > 100 µM (inactive)

For reference, reported GI50 for O=C(CCN(C(=O)O)S(=O)(=O)c1ccc(NC(=O)c2ccccc2)cc1)NC1CCCCC1 stands at 16.3 µM (inactive)

For reference, reported GI50 for CCOC(=O)c1cc2c([nH]1)c(O)cc1c2ccn1Cc1ccccc1 stands at 18 µM (inactive)

For reference, reported GI50 for CC(C)(C)OC(=O)NCC(O)CNC(=O)OC(C)(C)C stands at > 100 µM (inactive)

For reference, reported GI50 for C=CCN1C(=O)CC(=O)N(NC2=NNC3(C(=O)N2)c2ccccc2-c2ccccc23)C1=S stands at 38.5 µM (inactive)

For reference, reported GI50 for C=C1C(=O)OC2C1C(OC(=O)/C(C)=C/C)CC(O)(CCl)C1C(O)C3OC3(C)C21O (centres undefined) stands at 13.4 µM (inactive)

For reference, reported GI50 for O=C1CCC(=O)C12CCc1ccccc12 stands at > 100 µM (inactive)

For reference, reported GI50 for Brc1ccc2c(C3CN[C@@H](c4c[nH]c5cc(Br)ccc45)CN3)c[nH]c2c1 (some centres undefined) stands at 2.48 µM (inactive)

For reference, reported GI50 for Cn1c(=O)c2c(nc3n2CCCC(=O)N3CCCCl)n(C)c1=O stands at > 100 µM (inactive)

For reference, reported GI50 for O=[N+]([O-])c1cc2[nH]nnc2c2nonc12 stands at 30.7 µM (inactive)

For reference, reported GI50 for N#C/C(C(=O)Nc1ccc(Cl)cc1)=C(/N)N1CCCC1 stands at > 100 µM (inactive)

For reference, reported GI50 for CN(/N=C/c1cccc2cccnc12)c1ccccc1 stands at > 100 µM (inactive)

For reference, reported GI50 for CN(C)CCNC(=O)c1cccc2c(NCC(=O)O)c3ccccc3nc12 stands at 6.62 µM (inactive)

For reference, reported GI50 for O=C(OCC1CCCN2CCCCC12)c1cccnc1 (centres undefined) stands at > 100 µM (inactive)

For reference, reported GI50 for CC1=NOC(=O)C1/N=N/c1ccc(Br)c(C)c1 (centres undefined) stands at 17.6 µM (inactive)

For reference, reported GI50 for COc1ccc(-c2cc(-c3ccc(Nc4ccnc5cc(C(F)(F)F)ccc45)cc3)nc(N)c2C#N)c2ccccc12 stands at > 100 µM (inactive)

For reference, reported GI50 for COc1ccc(C2SCC(=O)N2NC(=O)c2ccc(NC(C)=O)cc2)c(OC)c1 (centres undefined) stands at > 100 µM (inactive)

For reference, reported GI50 for N[C@@H]1C[C@H](N)c2c(Cl)sc(Cl)c21 stands at > 100 µM (inactive)

For reference, reported GI50 for CCOc1cc(NC(C)=O)ccc1C(=O)NN1C(=O)/C(=C/c2cc(OC)c(OC)c(OC)c2)N=C1c1ccccc1 stands at > 100 µM (inactive)

For reference, reported GI50 for COc1ccc2c(-c3csc(-c4c[nH]c5ccc(Br)cc45)n3)c[nH]c2c1 stands at > 100 µM (inactive)

For reference, reported GI50 for CC(C)(C)C1=CC(=N/N=c2\scc(-c3ccccc3)n2Cc2ccccc2)C=C(C(C)(C)C)C1=O stands at > 100 µM (inactive)

For reference, reported GI50 for Cc1cc(C)c2c(c1)N[S@@](=O)S2 stands at 3.74 µM (inactive)

For reference, reported GI50 for O=C(N/N=C\c1cccc(O)c1)c1ccncc1 stands at > 100 µM (inactive)

For reference, reported GI50 for COc1ccc(CCN(C)C(=O)CC(C#N)(c2ccccc2)c2ccc(OC)c(OC)c2)cc1OC (centres undefined) stands at > 100 µM (inactive)

For reference, reported GI50 for Oc1nc2cc(Cl)ccc2nc1/C(=N\Nc1ccccc1)C(O)c1ccc2c(c1)OCO2 (centres undefined) stands at > 100 µM (inactive)

For reference, reported GI50 for O=C1CC(=O)NC(NNS(=O)(=O)c2ccc(Cl)cc2)=N1 stands at > 100 µM (inactive)

For reference, reported GI50 for CCOC(=O)N1C2C=C(C)C(C3C(C)C(=O)N31)N(C(=O)c1ccccc1)O2 (centres undefined) stands at > 100 µM (inactive)
